# Tested on: Escherichia coli TOP10;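 note: peptides expressed intracellularly from a pBAD plasmid library in pooled LB shake-flask culture, induced with 0.3% L-arabinose, DNA abundance read by NGS, three biological replicates, DESeq2 with apeglm shrinkage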
# Test Details: shrunken log2 fold change of peptide-encoding DNA abundance (4.5 h post-induction vs induction); higher = less antimicrobial activity (less host growth inhibition)
# Condition Context: time post-induction: 4.5 h; library: site-saturation at positions 5, 18, 19, 20
Returns the class for an entry based on its shrunken log2 fold change. Class ranges: LOW (below -0.1), MID (-0.1 to below 0.05), HIGH (0.05 or more)

>>> category("RRIRRRPPRLPRPRPRPMDHPRP")
"MID"
>>> category("RRIRMRPPRLPRPRPRPHIWPRP")
"MID"
>>> category("RRIRYRPPRLPRPRPRPVTLPRP")
"LOW"

Data request: Pick a category. Item: "RRIRPRPPRLPRPRPRPMKQPRP"
Data returned: MID

Data request: Each sequence maps to one class by shrunken log2 fold change. Which class for "RRIRRRPPRLPRPRPRPMNKPRP" ?
Data returned: HIGH

Data request: State the class of the sequence shown: "RRIRKRPPRLPRPRPRPENTPRP"
Data returned: HIGH

Data request: Each sequence maps to one class by shrunken log2 fold change. Which class for "RRIRDRPPRLPRPRPRPGEAPRP" ?
Data returned: HIGH

Data request: Tag the class for "RRIRFRPPRLPRPRPRPHILPRP"
Data returned: LOW
